molecular target: P2Y purinoceptor 1 (Homo sapiens, UniProt P47900); assay: Antagonist activity at P2Y1 expressed in HEK293 cells by FLIPR assay
Sequence (P47900 whole entry): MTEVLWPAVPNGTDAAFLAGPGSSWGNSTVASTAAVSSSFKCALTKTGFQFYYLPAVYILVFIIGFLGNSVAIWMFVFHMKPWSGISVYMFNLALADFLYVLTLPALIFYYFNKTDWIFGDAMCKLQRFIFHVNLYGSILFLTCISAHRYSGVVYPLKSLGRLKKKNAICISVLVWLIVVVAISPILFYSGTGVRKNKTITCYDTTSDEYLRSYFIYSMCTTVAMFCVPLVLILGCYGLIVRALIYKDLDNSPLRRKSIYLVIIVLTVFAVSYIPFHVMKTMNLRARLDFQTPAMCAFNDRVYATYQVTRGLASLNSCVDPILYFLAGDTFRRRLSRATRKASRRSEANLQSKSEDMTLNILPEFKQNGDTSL
PROPERTY: IC50 (nM)

[1] CC(C)c1ccccc1-c1cc2cccc(NC(=O)Nc3ccc(C(C)(C)C)cc3)c2o1
[2] CC(C)(C)c1ccccc1-c1cc2cccc(NC(=O)Nc3ccc(OC(F)(F)F)cc3)c2o1
[3] CC(C)c1ccccc1-c1cc2cccc(NC(=O)Nc3ccc(N(C)C)cc3)c2o1
Qu. Sort the 3 compounds by IC50; largest first, smallest last. Labels, ranked as asked.
Ans. 3, 2, 1

[A] CC(C)c1ccccc1-c1cc2cccc(NC(=O)Nc3ccc(OC(F)(F)F)cc3)c2o1
[B] Cc1ccc(NC(=O)Nc2cccc3cc(-c4ccccc4C(C)C)oc23)cc1C(F)(F)F
[C] CCCCCc1ccc(NC(=O)Nc2cccc3cc(-c4ccccc4C(C)C)oc23)cc1
Qu. Please put the entries in order of rising IC50. Give the order by naming the labels one after another as requested.
Ans. C, B, A

====

target: P2Y purinoceptor 1 (Homo sapiens, UniProt P47900); test: Antagonist activity at P2Y1 expressed in HEK293 cells by FLIPR assay
PROPERTY: IC50 (µM)

1. CC(C)c1ccccc1-c1cc2cccc(NC(=O)Nc3ccc(Cl)cc3)c2o1 | 2
2. CCCCOc1ccc(NC(=O)Nc2cccc3cc(-c4ccccc4C(C)C)oc23)cc1 | 2
